study.system: SIRT1 (Homo sapiens, UniProt Q96EB6)
experiment: Mass spectrometry based SIRT1 deacetylase activation assay (acetylated p53-derived peptide substrate)
Assay type: biochemical
condition.label: 0.5 μM peptide substrate, 120 μM βNAD+, 10 nM SIRT1, 25 min at 25° C., read-out: EC1.5
outcome.measure: EC1.5

Query: Could you share which EC1.5 value was measured for O=C(NC1CCOC1=O)c1cccc2[nH]c(-c3ccnn3-c3ccccc3)nc12 (centres unmarked) ?
Response: > 25000 nM

Query: Could you share which EC1.5 value was measured for `O=C(Nc1nccs1)c1cccc2[nH]c(-c3ccc(OC[C@H](O)CO)cc3C(F)F)nc12` ?
Response: < 1000 nM

Query: Could you share which EC1.5 value was measured for O=C(Nc1cccc(OCC(O)CO)c1)c1cccc2[nH]c(-c3cc(F)ccc3C(F)(F)F)nc12 (centres unmarked) ?
Response: < 1000 nM

Query: Could you share which EC1.5 value was measured for `CCCN1CCc2cc(-c3nc4c(C(=O)Nc5cccnc5)cccc4[nH]3)ccc21` ?
Response: 1000 to 25000 nM

Query: Could you share which EC1.5 value was measured for `Cc1cnc(NC(=O)c2cccc3[nH]c(-c4ccc(F)cc4C(F)F)nc23)s1` ?
Response: < 1000 nM

Query: Could you share which EC1.5 value was measured for `CN1CCOc2cc(-c3nc4c(C(=O)Nc5cccnn5)cccc4[nH]3)cnc21` ?
Response: < 1000 nM

***
Query: Could you share which EC1.5 value was measured for `O=C(Nc1ccccn1)c1cccc2[nH]c(-c3ccc(N4CCOCC4)cc3C(F)F)nc12` ?
Response: < 1000 nM

Query: Could you share which EC1.5 value was measured for `O=C(Nc1nccs1)c1cccc2[nH]c(-c3ccnc(N4CCCC4)c3)nc12` ?
Response: < 1000 nM

Query: Could you share which EC1.5 value was measured for `Cc1cc(C)nc(NC(=O)c2cccc3[nH]c(-c4cccc(N5CCOCC5)c4)nc23)c1` ?
Response: < 1000 nM

Query: Could you share which EC1.5 value was measured for `Cc1cc(NC(=O)c2cccc3[nH]c(-c4cccc(N5CCOCC5)c4)nc23)no1` ?
Response: 1000 to 25000 nM

Query: Could you share which EC1.5 value was measured for O=C(Nc1cccc(OC2CCNC2)c1)c1cccc2[nH]c(-c3ccccc3C(F)(F)F)nc12 (centres unmarked) ?
Response: < 1000 nM

Query: Could you share which EC1.5 value was measured for `CS(=O)(=O)c1ccccc1-c1nc2c(C(=O)Nc3ccccn3)cccc2[nH]1` ?
Response: < 1000 nM

Query: Could you share which EC1.5 value was measured for `O=C(Nc1ccccn1)c1cccc2[nH]c(-c3ccccc3OCCN3CCOCC3)nc12` ?
Response: 1000 to 25000 nM

Query: Could you share which EC1.5 value was measured for `O=C(Nc1ccc(CN2CCCC2)cn1)c1cccc2[nH]c(-c3ccccc3C(F)(F)F)nc12` ?
Response: < 1000 nM

---

study.system: SIRT1 (Homo sapiens, UniProt Q96EB6)
experiment: Mass spectrometry based SIRT1 deacetylase activation assay (acetylated p53-derived peptide substrate)
Type: biochemical
condition.label: 0.5 μM peptide substrate, 120 μM βNAD+, 10 nM SIRT1, 25 minutes at 25° C.
outcome.measure: EC1.5

Query: Could you share which EC1.5 value was measured for O=C(Nc1cccc(OC2CCNC2)c1)c1cccc2[nH]c(-c3ccc(F)cc3C(F)(F)F)nc12 (stereo not shown) ?
Response: A (EC1.5<1.0 uM)

Query: Could you share which EC1.5 value was measured for `Cc1cnc(NC(=O)c2cncc3[nH]c(-c4cc(F)ccc4C(F)(F)F)nc23)s1` ?
Response: A (EC1.5<1.0 uM)

Query: Could you share which EC1.5 value was measured for `O=C(Nc1ccccn1)c1cc(N2CCOCC2)cc2[nH]c(-c3ccccc3C(F)(F)F)nc12` ?
Response: A (EC1.5<1.0 uM)

---

study.system: SIRT1 (Homo sapiens, UniProt Q96EB6)
Sequence (Q96EB6 1-747): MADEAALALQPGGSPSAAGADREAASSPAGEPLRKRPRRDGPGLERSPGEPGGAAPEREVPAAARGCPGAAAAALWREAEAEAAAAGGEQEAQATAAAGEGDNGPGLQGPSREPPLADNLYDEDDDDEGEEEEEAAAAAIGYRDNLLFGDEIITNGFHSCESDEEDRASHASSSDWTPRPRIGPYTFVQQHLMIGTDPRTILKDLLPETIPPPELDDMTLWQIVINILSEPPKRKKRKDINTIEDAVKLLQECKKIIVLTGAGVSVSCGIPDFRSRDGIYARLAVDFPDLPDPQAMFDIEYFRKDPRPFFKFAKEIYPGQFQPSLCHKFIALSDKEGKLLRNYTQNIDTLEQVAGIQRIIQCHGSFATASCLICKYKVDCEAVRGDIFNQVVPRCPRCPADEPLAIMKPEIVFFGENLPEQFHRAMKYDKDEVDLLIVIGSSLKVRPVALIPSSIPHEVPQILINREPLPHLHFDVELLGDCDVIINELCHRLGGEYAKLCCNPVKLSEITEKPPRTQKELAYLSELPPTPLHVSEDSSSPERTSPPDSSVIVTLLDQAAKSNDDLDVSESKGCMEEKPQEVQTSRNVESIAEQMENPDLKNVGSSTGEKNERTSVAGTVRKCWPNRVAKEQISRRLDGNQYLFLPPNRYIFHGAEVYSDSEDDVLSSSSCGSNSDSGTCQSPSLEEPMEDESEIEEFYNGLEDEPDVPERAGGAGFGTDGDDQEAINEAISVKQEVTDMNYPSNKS
experiment: Mass spectrometry based SIRT1 deacetylase activation assay (acetylated p53-derived peptide substrate)
Format: biochemical
outcome.measure: EC1.5

Query: Could you share which EC1.5 value was measured for `O=C(Nc1nccs1)c1cccc2[nH]c(-c3ccncc3)nc12` ?
Response: B (EC1.5 1-25 uM)

Query: Could you share which EC1.5 value was measured for `Cc1cc(C)nc(NC(=O)c2cccc3[nH]c(-c4cccc(C(F)(F)F)c4)nc23)c1` ?
Response: A (EC1.5<1.0 uM)

Query: Could you share which EC1.5 value was measured for `O=C(Nc1nccs1)c1cccc2[nH]c(-c3cc(F)cc(F)c3)nc12` ?
Response: B (EC1.5 1-25 uM)

Query: Could you share which EC1.5 value was measured for `O=C(Nc1ccccn1)c1cccc2[nH]c(-c3cccc(-c4nnn[nH]4)c3)nc12` ?
Response: A (EC1.5<1.0 uM)

Query: Could you share which EC1.5 value was measured for `O=C(Nc1ccccn1)c1cccc2[nH]c(-c3ccc(-c4nnn[nH]4)cc3)nc12` ?
Response: A (EC1.5<1.0 uM)

***
Query: Could you share which EC1.5 value was measured for `O=C(Nc1cccc2[nH]c(-c3cc(F)ccc3C(F)(F)F)nc12)c1cscn1` ?
Response: B (EC1.5 1-25 uM)

Query: Could you share which EC1.5 value was measured for `O=C(Nc1cccnc1)c1cccc2[nH]c(-c3ccnn3-c3ccccc3)nc12` ?
Response: B (EC1.5 1-25 uM)

Query: Could you share which EC1.5 value was measured for `O=C(Nc1nccs1)c1cccc2[nH]c(-c3cccc(C(F)(F)F)c3)nc12` ?
Response: A (EC1.5<1.0 uM)

---

study.system: SIRT1 (Homo sapiens)
experiment: Mass spectrometry based SIRT1 deacetylase activation assay (acetylated p53-derived peptide substrate)
Assay type: biochemical
condition.label: 0.5 μM peptide substrate, 120 μM βNAD+, 10 nM SIRT1, 25 minutes at 25° C.
outcome.measure: EC1.5

Examples with answers:
Query: Could you share which EC1.5 value was measured for `O=C(Nc1cccc(OC[C@@H](O)CO)c1)c1cccc2[nH]c(-c3ccccc3C(F)(F)F)nc12` ?
Response: A (EC1.5<1.0 uM)

Query: Could you share which EC1.5 value was measured for `CC1(C)CN(c2ccc(-c3nc4c(C(=O)Nc5ccccn5)cccc4[nH]3)c(C(F)(F)F)c2)CCO1` ?
Response: A (EC1.5<1.0 uM)

Query: Could you share which EC1.5 value was measured for `O=C(Nc1ccccc1)c1cccc2[nH]c(-c3ccc(Cl)cc3C(F)(F)F)nc12` ?
Response: A (EC1.5<1.0 uM)

Query: Could you share which EC1.5 value was measured for `O=C(Nc1ccc(CN2CCCC2)nc1)c1cccc2[nH]c(-c3cc(F)ccc3C(F)(F)F)nc12` ?
Response: A (EC1.5<1.0 uM)

***
Query: Could you share which EC1.5 value was measured for `O=C(Nc1ccc(OC[C@@H](O)CO)cc1)c1cccc2[nH]c(-c3cccc(N4CCCC4)c3)nc12` ?
Response: A (EC1.5<1.0 uM)

Query: Could you share which EC1.5 value was measured for `Cc1cccc(-c2nc3c(C(=O)Nc4ccccn4)cccc3[nH]2)c1OCCN1CCOCC1` ?
Response: B (EC1.5 1-25 uM)

Query: Could you share which EC1.5 value was measured for `O=C(Nc1nccs1)c1cncc2[nH]c(-c3cc(F)ccc3C(F)(F)F)nc12` ?
Response: B (EC1.5 1-25 uM)

Query: Could you share which EC1.5 value was measured for `O=C(Nc1cccnc1)c1cncc2[nH]c(-c3cc(F)ccc3C(F)(F)F)nc12` ?
Response: A (EC1.5<1.0 uM)
